Tested on: HBV replication in HepDES19 cells
run description: Antiviral activity in HepDES19 cells (core-associated HBV DNA, Southern blot)
Format: cell-based, Hepatitis B virus (HBV)
conditions: concentration that reduces core-associated HBV DNA by 50%; 6 days; serial dilution 10 μM to 0.018 μM
readout label: EC50 (µM)
// units = µM; emit number, no label

Query: Sample O=C(Nc1ccccc1)c1scc2c1OCCO2 [Entry 7] — what was its EC50?
Reply: 3

Query: Sample O=C(Nc1ccccc1)c1scc2c1OCCO2 [Entry 10] — what was its EC50?
Reply: 8.45

* * *

System: HBV replication in HepDES19 cells
run description: Antiviral activity in HepDES19 cells (core-associated HBV DNA, Southern blot)
Format: cell-based, Hepatitis B virus (HBV)
conditions: Hepatitis B virus, HepDES19, 144 h, concentration that reduces core-associated HBV DNA by 50%; 6 days; serial dilution 10 μM to 0.018 μM
readout label: EC50 (µM)
// units = µM; emit number, no label

Query: Sample O=C(Nc1cccc(Cl)c1)c1scc2c1OCCO2 [Entry 6] — what was its EC50?
Reply: 13.5

Query: Sample O=C(Nc1cccc(Cl)c1)c1cccc(Cl)c1Cl [Entry 14] — what was its EC50?
Reply: 22.2

Query: Sample O=C(Nc1cccc(Cl)c1)c1cccc2ccccc12 [Entry 18] — what was its EC50?
Reply: 4.2
